# target_system: CCK receptor (brain, cerebral cortex) (Cavia porcellus)
# Construct: Cerebral cortex was dissected and used as a receptor source; from tissue; host or cells: guinea pig cerebral cortex membranes (male Hartley)
# Sequence (H0VZC5 1-426): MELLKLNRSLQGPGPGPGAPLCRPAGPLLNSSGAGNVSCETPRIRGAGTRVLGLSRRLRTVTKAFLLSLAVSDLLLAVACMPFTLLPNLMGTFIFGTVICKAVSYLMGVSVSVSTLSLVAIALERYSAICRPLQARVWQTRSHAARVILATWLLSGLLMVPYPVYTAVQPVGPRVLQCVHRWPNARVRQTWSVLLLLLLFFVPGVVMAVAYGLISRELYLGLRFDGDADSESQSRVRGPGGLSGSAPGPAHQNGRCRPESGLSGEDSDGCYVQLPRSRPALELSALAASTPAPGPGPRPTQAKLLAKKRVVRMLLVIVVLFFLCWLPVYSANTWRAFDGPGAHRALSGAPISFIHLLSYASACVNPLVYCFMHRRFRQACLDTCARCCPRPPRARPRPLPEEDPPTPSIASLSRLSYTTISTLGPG
# assay_procedure: biochemical
# Type: binding, Male Hartley guinea pigs
# test_context: guinea pig cerebral cortex, ^125 I-CCK-33, 25° C., 2 hours; read-out: IC50 ^125 I-CCK Brain
# Experimental: 2. CCK Recepto Binding (Brain) CCK-33 was radiolabeled and the binding was Performed according to the description for the Pancreas method with modifications according to Saito et al., J. Neurochem. Cerebral cortex was dissected and used as a receptor source. Each gram of fresh guinea pig brain tissue was homogenized in 10 ml of Tris/Trizma buffer with a Brinkman polytron PT-10. […] The supernatant was aspirated and discarded, pellets were counted with a Beckman gamma 5000.

compound	comparator	IC50, nM
CCOC(=O)CN1C(=O)C(NC(=O)OCc2ccccc2)N=C(c2ccccc2)c2ccccc21 (stereo not shown)	=	300
CCOC(=O)CN1C(=O)C(NC(=O)Nc2ccc(Cl)cc2)N=C(c2ccccc2F)c2ccccc21 (stereo not shown)	=	1.2
CN1C(=O)C(C(O)c2cccs2)N=C(c2ccccc2)c2ccccc21 (racemic)	=	33000
O=C(O)CN1C(=O)C(NC(=O)Nc2ccc(Cl)cc2)N=C(c2ccccc2)c2ccccc21 (stereo not shown)	=	72
CN1C(=O)C(NC(=S)Nc2ccccc2)N=C(c2ccccc2)c2ccccc21 (stereo not shown)	=	860
O=C1Nc2ccc(Cl)cc2C(c2ccccc2)N[C@H]1Cc1c[nH]c2ccccc12 (stereo partly shown)	>	100000
CN1C(=O)C(C(=O)Nc2ccc(Cl)cc2)N=C(c2ccccc2)c2ccccc21 (stereo not shown)	=	5900
COc1ccccc1NC(=O)NC1N=C(c2ccccc2)c2ccccc2N(C)C1=O (stereo not shown)	=	1200
CN1C(=O)C(NC(=O)NCc2ccccc2)N=C(c2ccccc2)c2ccccc21 (stereo not shown)	=	860
O=CNc1ccccc1C(=O)CC1N=C(c2ccccc2F)c2ccccc2NC1=O (stereo not shown)	>	100000
CN1C(=O)C(C(=O)c2ccsc2)=NC(O)(c2ccccc2)c2ccccc21 (racemic) [Example 53b]	=	100000
COc1cccc(NC(=O)NC2N=C(c3ccccc3)c3cccc(C)c3N(C)C2=O)c1 (stereo not shown)	=	15
CN1C(=O)C(NC(=O)[C@@H](Cc2ccccc2)NC(=O)OC(C)(C)C)N=C(c2ccccc2F)c2ccccc21 (stereo partly shown)	=	2700
CN1C(=O)[C@@H](Cc2cn(C)c3ccccc23)N(C(=O)c2ccc(Cl)cc2)C(c2ccccc2F)c2ccccc21 (stereo partly shown) [Example 27a]	>	100000
O=C(NC1N=C(c2ccccc2F)c2ccccc2NC1=O)OCc1ccccc1 (racemic)	=	15000
CCN(CC)C(=O)C(C)N1C(=O)C(NC(=O)Nc2ccc(Cl)cc2)N=C(c2ccccc2)c2ccccc21 (single isomer, unassigned)	=	22
CCCCNC(=O)CN1C(=O)C(NC(=O)OCc2ccccc2)N=C(c2ccccc2)c2ccccc21 (stereo not shown)	=	380
O=C(OC1N=C(c2ccccc2F)c2ccccc2N(C(=O)c2ccc(Cl)cc2)C1=O)c1ccc(Cl)cc1 (racemic)	>	100000
CCOC(=O)CCN1C(=O)C(NC(=O)OCc2ccccc2)N=C(c2ccccc2)c2ccccc21 (stereo not shown)	=	440
CN1C(=O)[C@@H](NC(=O)c2ccccc2I)N=C(c2ccccc2)c2ccccc21	=	71000
CN1CCN(C(=O)CN2C(=O)C(NC(=O)Nc3ccc(Cl)cc3)N=C(c3ccccc3)c3ccccc32)CC1 (stereo not shown)	=	8
Cc1cccc2c1N(C)C(=O)C(NC(=O)c1cc3ccccc3[nH]1)N=C2c1ccccc1 (stereo not shown)	=	89
CN1C(=O)C(CC(=O)Nc2ccc(Cl)cc2)N=C(c2ccccc2)c2ccccc21 (stereo not shown)	=	3700
CCOC(=O)C(C)N1C(=O)C(NC(=O)OCc2ccccc2)N=C(c2ccccc2)c2ccccc21 (stereo not shown) [Example 241]	=	1400
CN1C(=O)C(NC(=O)Nc2ccc([N+](=O)[O-])cc2)N=C(c2ccccc2)c2ccccc21 (stereo not shown)	=	46
CN1C(=O)[C@@H](NC(=O)C=Cc2ccccc2)N=C(c2ccccc2)c2ccccc21	=	640
CN1C(=O)C(NC(=O)Nc2ccccc2Cl)N=C(c2ccccc2)c2ccccc21 (stereo not shown)	=	320
COc1cccc(NC(=O)NC2N=C(c3ccc(C)cc3)c3ccccc3N(C)C2=O)c1 (stereo not shown)	=	3.5
O=C1Nc2ccc(Cl)cc2C(c2ccccc2)N[C@@H]1Cc1c[nH]c2ccccc12 (stereo partly shown)	>	100000
Cc1ccc(C2=NC(NC(=O)c3cc4ccccc4[nH]3)C(=O)N(C)c3ccccc32)cc1 (stereo not shown)	=	380
CN1C(=O)[C@@H](NC(=O)Nc2ccccc2Cl)N=C(c2ccccc2)c2ccccc21	=	280
